# Experimental Target: human Bruton's Tyrosine Kinase (Btk) (Homo sapiens (Human), UniProt Q06187)
# Sequence (Q06187 whole entry): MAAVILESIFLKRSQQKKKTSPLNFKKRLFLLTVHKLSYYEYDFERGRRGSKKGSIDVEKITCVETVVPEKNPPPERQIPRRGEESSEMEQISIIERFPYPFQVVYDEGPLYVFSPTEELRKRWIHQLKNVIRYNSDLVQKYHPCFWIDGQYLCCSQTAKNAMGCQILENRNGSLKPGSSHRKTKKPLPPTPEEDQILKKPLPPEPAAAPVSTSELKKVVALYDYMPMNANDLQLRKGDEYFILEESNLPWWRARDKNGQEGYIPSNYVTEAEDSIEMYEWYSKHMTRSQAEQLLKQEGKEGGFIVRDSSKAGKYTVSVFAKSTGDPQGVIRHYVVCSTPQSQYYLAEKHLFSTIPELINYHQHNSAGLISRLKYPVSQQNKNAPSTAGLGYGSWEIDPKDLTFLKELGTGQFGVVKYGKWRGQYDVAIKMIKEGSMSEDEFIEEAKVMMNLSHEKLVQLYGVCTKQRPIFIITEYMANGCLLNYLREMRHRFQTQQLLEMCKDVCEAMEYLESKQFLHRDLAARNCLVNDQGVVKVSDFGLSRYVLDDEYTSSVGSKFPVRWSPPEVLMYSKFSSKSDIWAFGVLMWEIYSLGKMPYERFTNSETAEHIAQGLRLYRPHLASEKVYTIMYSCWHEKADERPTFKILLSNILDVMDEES
# Method Description: Recombinant Human Bruton's Tyrosine Kinase (Btk) Inhibition Assay (HTRF KinEASE-TK)
# Format: biochemical
# Measurement Context: 20 ng/ml rhBtk, 77 μM ATP (KM), 1 μM TK-Biotin substrate, 90 min; read-out: hBTK IC50
pIC50: −log10 of the molar value.
Assay Readout: pIC50

Completed entries (count: 4):
> print(dat)
                                   compound  reported
1  O=C(O)c1ccc(-c2cc3c(-c4cccc(N5CCOc6cc(C7CC7)ccc6C5=O)c4CO)ccnc3[nH]2)nc1      7.34
2  CN1CCOC(c2ccc(-c3cc4c(-c5cccc(N6CCOc7cc(C8CC8)ccc7C6=O)c5CO)ccnc4[nH]3)cc2)C1 (stereo not shown)      8.52
3  CC(C)N1CC(n2cc(-c3cc4c(-c5cccc(N6CCOc7cc(C8CC8)ccc7C6=O)c5CO)ccnc4[nH]3)cn2)C1      8.19
4  COC1CCN(C(=O)c2ccc(-c3cc4c(-c5cccc(N6CCOc7cc(C8CC8)ccc7C6=O)c5C)ncnc4[nH]3)cc2)CC1      6.63

I: CC1(O)CN(Cc2ccc(-c3cc4c(-c5cccc(N6CCOc7cc(C8CC8)ccc7C6=O)c5CO)ccnc4[nH]3)cc2)C1
II: Cc1c(-c2ncnc3[nH]c(C4=CCN(CCO)CC4)cc23)cccc1N1CCOc2cc(C3CC3)ccc2C1=O
QUERY: From the recorded data, which exceeds the other in pIC50: I or II ? Field: selected label. Fill in the label of the entry you choose.
RESULT: I
